// data source = ChEMBL document CHEMBL3885861

Below, each of the compounds is paired with its reported TG value.
Species: Rattus norvegicus
experiment: Open TG-GATES - Regimen: Single
Assay type: toxicity, organism-based, Sprague-Dawley
Parameters: regimen Single, gender Male, age 6 weeks
test-settings: in vivo, po, 300 mg/kg, 24 h, tissue Plasma, route gavage, dose level Middle
Reply with just the number (in mg/dL).

Observe how each entry below is paired with its result.
compound: C[C@H](CS)C(=O)N1CCC[C@H]1C(=O)O
experimental-result: 86
//
compound: O=C(O)c1cc(/N=N/c2ccc(S(=O)(=O)Nc3ccccn3)cc2)ccc1O
experimental-result: 85.6
//
compound: CCc1cc(C(N)=S)ccn1 [ETHIONAMIDE]
experimental-result: 77

Ask: Read the entry O=C(O)c1cn(C2CC2)c2cc(N3CCNCC3)c(F)cc2c1=O and write its reported TG.
Result: 49
